What log10 of microsomal CLint at 0.5 h, 1 µM was measured for each of the following?
- test_details: in vitro
- run_conditions: mouse, liver microsomes
Form field - Quantity: microsomal CLint at 0.5 h, 1 µM; Unit: µL/min/mg; Scale: log10

Examples with answers:
>>> df
                                        mol  measured
0  COc1ccc(CC(=O)NC(=N)NCC(=O)Nc2cc(S(N)(=O)=O)ccc2C)cc1OC      1.30
1  CNS(=O)(=O)c1ccc(C)c(NC(=O)[C@@H](CC2CCCCC2)NC(=N)NC(=O)Cc2ccc(OC)c(Cl)c2)c1      2.44
2  CNS(=O)(=O)c1ccc(C)c(NC(=O)[C@H](CC2CCCCC2)NC(=N)NC(=O)Cc2ccc(OC)c(OC)c2)c1      2.26
3  COc1ccc(CC(=O)NC(=N)N[C@H](Cc2ccccc2)C(=O)Nc2cc(S(N)(=O)=O)ccc2C)cc1OC      2.29
4  CNS(=O)(=O)c1ccc(C)c(NC(=O)[C@@H](CC2CCCCC2)NC(=N)NC(=O)Cc2cc(Cl)cc(OC)c2)c1      2.33
5  CNS(=O)(=O)c1ccc(C)c(NC(=O)[C@@H](CC2CCCCC2)NC(=N)NC(=O)Cc2cc(Cl)cc(C(F)(F)F)c2)c1      2.34

Please give log10 of microsomal CLint at 0.5 h, 1 µM for each item listed below.
1. COc1ccc(CC(=O)NC(=N)N[C@@H](C(=O)Nc2cc(S(N)(=O)=O)ccc2C)C(C)(C)C)cc1OC
2. COCC[C@@H](NC(=N)NC(=O)Cc1ccc(OC)c(OC)c1)C(=O)Nc1cc(S(N)(=O)=O)ccc1C

1. 2.32
2. 1.76

List the reported log10 of microsomal CLint at 0.5 h, 1 µM of each molecule below.
1. COc1ccc(CC(=O)NC(=N)N[C@H](CC2CCCCC2)C(=O)Nc2cc(S(=O)(=O)N3CCN(C)CC3)ccc2C)cc1OC
2. CNS(=O)(=O)c1ccc(C)c(NC(=O)[C@@H](CC2CCCCC2)NC(=N)NC(=O)Cc2ccc(S(C)(=O)=O)cc2)c1
3. COc1ccc(CC(=O)NC(=N)N[C@H](Cc2cc3ccccc3s2)C(=O)Nc2cc(S(N)(=O)=O)ccc2C)cc1OC
4. Cc1ccc(S(=O)(=O)N(C)C)cc1NC(=O)[C@@H](CC1CCCCC1)NC(=N)NC(=O)Cc1ccc(C(F)(F)F)cc1

1: 2.33; 2: 2.32; 3: 2.38; 4: 2.45
